B1: LINE1-full (parent)
chain: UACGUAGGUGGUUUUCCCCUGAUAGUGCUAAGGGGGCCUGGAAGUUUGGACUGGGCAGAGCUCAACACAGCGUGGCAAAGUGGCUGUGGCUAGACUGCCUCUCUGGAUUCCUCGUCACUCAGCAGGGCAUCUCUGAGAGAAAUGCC

Variants of: B1
Experiment: self-cleavage, relative activity (ratio to wild type); higher = more cleavage; in vitro, sequencing; the parent is a self-cleaving ribozyme
Recorded endpoint: self-cleavage

Variant	Recorded endpoint	Experimental value
U5C U91G	self-cleavage	0
A65G U73G	self-cleavage	0.08
A57U U73A	self-cleavage	0.06
G33U U119C	self-cleavage	1.19
C101U	self-cleavage	1.39
U45C C56U	self-cleavage	0.12
U29C C145U	self-cleavage	1.28
A57G G106A	self-cleavage	1.04
U29A U134C	self-cleavage	0.87
G32A A121U	self-cleavage	1.45
G34A U132A	self-cleavage	1.51
A43G G97A	self-cleavage	0.04
G49U U108C	self-cleavage	1.5
C76U A107U	self-cleavage	2.27
U73C C76U	self-cleavage	2.52
C120U G127A	self-cleavage	1.48
U20G U47C	self-cleavage	0
G44U U130A	self-cleavage	1.99
A79G G139U	self-cleavage	1.19
A64U G80U	self-cleavage	0.47
U46A U52C	self-cleavage	1.56
A22U A67C	self-cleavage	0.05
U14A A140G	self-cleavage	0.91
G35U U130C	self-cleavage	1.74
U85A U134A	self-cleavage	0.06
A65U A141G	self-cleavage	0.18
A57C A92U	self-cleavage	0
C38U A57U	self-cleavage	0.15
G40U A117G	self-cleavage	0.97
C61U U102C	self-cleavage	0.03
U96C A107G	self-cleavage	0.14
A42G A129C	self-cleavage	2.1
A65G A129C	self-cleavage	0.02
U39A U109A	self-cleavage	1.45
U52A U102C	self-cleavage	0.88
U15C A124C	self-cleavage	0.86
U26A A140G	self-cleavage	1.02
U12C A129G	self-cleavage	1.4
U9C G89U	self-cleavage	0.08
U29C U132C	self-cleavage	1.46
U112C	self-cleavage	1.36
A2G C17A	self-cleavage	1.56
U26A G40U	self-cleavage	0.37
G7A A30U	self-cleavage	0.92
U73A A140G	self-cleavage	1.69
U39C U112A	self-cleavage	1.45
G83U A117U	self-cleavage	1.21
U5C U112C	self-cleavage	0.99
U96C A140U	self-cleavage	0.14
U112A A138U	self-cleavage	2.19
U73A U112G	self-cleavage	1.53
A121G A129U	self-cleavage	1.59
U47G C146U	self-cleavage	1.69
A94G C116U	self-cleavage	0.28
C61A A124G	self-cleavage	0.04
G25A A79G	self-cleavage	0.91
U12C A121U	self-cleavage	1.11
C116U A124U	self-cleavage	1.87
U45C C71A	self-cleavage	0.15
U87C U130C	self-cleavage	0.35
U81A U119A	self-cleavage	2.53
G4C A65G	self-cleavage	0.08
U96C A129U	self-cleavage	0.1
A42U A77U	self-cleavage	0.83
G36A A124U	self-cleavage	0.31
G4A G70U	self-cleavage	0.11
U52A U143A	self-cleavage	1.37
U29C A92G	self-cleavage	0.21
A42U A57G	self-cleavage	0.63

Origin of measurements: the RNAGym collection of RNA variant scans (doi:10.7554/elife.90254)
